Conditions: in water, 293.15 K

INPUT_SMILES: N#CN=C(N)N
solubility (mole fraction): 0.00707

====

Conditions: in water, 318.15 K

INPUT_SMILES: N#CN=C(N)N
solubility (mole fraction): 0.021

====

Details: in water, 303.15 K

INPUT_SMILES: N#CN=C(N)N
solubility (mole fraction): 0.0114

====

Conditions: in water, 308.15 K
OBSERVATION_TYPE: solubility (mole fraction)

INPUT_SMILES: N#CN=C(N)N
OBSERVATION_TYPE: solubility (mole fraction)
RESULT: 0.0141

====

Details: in water, 323.15 K
OBSERVATION_TYPE: solubility (mole fraction)

INPUT_SMILES: N#CN=C(N)N
RESULT: 0.0265

====

Settings: in water, 283.15 K
OBSERVATION_TYPE: solubility (mole fraction)

INPUT_SMILES: N#CN=C(N)N
OBSERVATION_TYPE: solubility (mole fraction)
RECORDED_NUMBER: 0.00387
